Test system: isolated rat distal colon
ASSAY NOTES: Effect on isolated rat distal colon (spontaneous contractions, organ bath)
Format: cell-based
STUDY CONDITIONS: 0.5 h, isolated distal colon strip of male SD rats, Tyrode solution 37° C., observed over 30 minutes
Counter-ions that a name gives are not always drawn.
QUANTITY: pIC50
In textbook form, pIC50 equals minus log to base ten of the concentration in mol/L.

COMPOUND: CCOC(=O)COc1ccc2c(c1)C[C@@H](NC[C@H](O)c1cccc(Cl)c1)CCC2 [2-3), hydrochloride]
ASSAY TARGET: isolated rat distal colon
pIC50: 9.08

COMPOUND: CCOC(=O)COc1ccc2c(c1)CC(NC[C@H](O)c1cccc(Cl)c1)CCC2 (mixture of isomers) [Example 1, hydrochloride]
ASSAY TARGET: isolated rat distal colon
pIC50: 9.17

API: the following record is the query input.
// query # get_value(readout='pIC50', item= CCOC(=O)COc1ccc2c(c1)C[C@H](NC[C@H](O)c1cccc(Cl)c1)CCC2 [3-2)] )
// result 9.18
